STUDY SYSTEM: Dipeptidyl peptidase 4 (Homo sapiens, UniProt P27487)
EXPERIMENT DESCRIPTION: Percent inhibition of Dipeptidyl peptidase IV (DPP IV) at a concentration of 10 uM
Sequence (P27487 whole entry, looked up): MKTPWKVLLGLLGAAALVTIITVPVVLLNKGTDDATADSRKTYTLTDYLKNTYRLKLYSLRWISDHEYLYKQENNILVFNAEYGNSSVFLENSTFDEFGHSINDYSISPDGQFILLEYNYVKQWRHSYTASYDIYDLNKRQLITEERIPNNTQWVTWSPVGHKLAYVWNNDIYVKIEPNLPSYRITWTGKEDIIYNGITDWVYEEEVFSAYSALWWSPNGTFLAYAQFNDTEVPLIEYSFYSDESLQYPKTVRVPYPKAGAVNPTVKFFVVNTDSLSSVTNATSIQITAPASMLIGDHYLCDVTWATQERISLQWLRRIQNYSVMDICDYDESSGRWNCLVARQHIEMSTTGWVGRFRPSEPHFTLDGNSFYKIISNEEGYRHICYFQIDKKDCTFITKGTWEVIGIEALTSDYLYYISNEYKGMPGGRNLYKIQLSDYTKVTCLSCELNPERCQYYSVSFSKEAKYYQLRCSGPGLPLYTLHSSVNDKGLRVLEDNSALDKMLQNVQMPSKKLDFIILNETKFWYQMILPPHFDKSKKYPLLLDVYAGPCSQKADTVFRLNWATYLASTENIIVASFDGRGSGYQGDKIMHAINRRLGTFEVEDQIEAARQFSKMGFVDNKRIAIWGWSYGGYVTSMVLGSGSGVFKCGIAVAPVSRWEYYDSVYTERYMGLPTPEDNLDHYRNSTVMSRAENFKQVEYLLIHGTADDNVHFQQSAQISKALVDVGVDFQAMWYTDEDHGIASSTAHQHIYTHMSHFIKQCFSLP
Square brackets hold non-standard residues; d marks the D form. Peptide text beside a SMILES is read from it. Tic = O=C(O)[C@@H]1Cc2ccccc2CN1
Is inhibition at least 40%? Then 1. If not, 0.

COMPOUND	GROUP
C[C@H](NC(=O)[C@@H]1Cc2ccccc2CN1C(=O)[C@@H](N)Cc1c[nH]c2ccccc12)C(=O)O (H-Trp-[Tic]-Ala-OH)	1
NC(=O)CC[C@H](NC(=O)[C@@H]1Cc2ccccc2CN1C(=O)[C@@H](N)Cc1c[nH]c2ccccc12)C(=O)O (H-Trp-[Tic]-Gln-OH)	1
N[C@@H](Cc1c[nH]c2ccccc12)C(=O)N1Cc2ccccc2C[C@H]1C(=O)N[C@@H](CC(=O)O)C(=O)O (H-Trp-[Tic]-Asp-OH)	0
N[C@@H](Cc1c[nH]c2ccccc12)C(=O)N[C@@H](Cc1c[nH]c2ccccc12)C(=O)O (H-Trp-Trp-OH)	0
N[C@@H](Cc1c[nH]c2ccccc12)C(=O)N1CCC[C@H]1C(=O)O (H-Trp-Pro-OH)	0
N[C@@H](Cc1c[nH]c2ccccc12)C(=O)N1Cc2ccccc2C[C@H]1C(=O)N[C@@H](Cc1c[nH]cn1)C(=O)O (H-Trp-[Tic]-His-OH)	0
N[C@@H](Cc1c[nH]c2ccccc12)C(=O)N1Cc2ccccc2C[C@H]1C(=O)N[C@@H](Cc1ccccc1)C(=O)O (H-Trp-[Tic]-Phe-OH)	0
N[C@@H](Cc1c[nH]c2ccccc12)C(=O)N1Cc2ccccc2C[C@H]1C(=O)N[C@@H](Cc1ccc(O)cc1)C(=O)O (H-Trp-[Tic]-Tyr-OH)	0
CC(C)C[C@H](NC(=O)[C@@H]1Cc2ccccc2CN1C(=O)[C@@H](N)Cc1c[nH]c2ccccc12)C(=O)O (H-Trp-[Tic]-Leu-OH)	0
NC(=O)C[C@H](NC(=O)[C@@H]1Cc2ccccc2CN1C(=O)[C@@H](N)Cc1c[nH]c2ccccc12)C(=O)O (H-Trp-[Tic]-Asn-OH)	1
CC(C)[C@H](NC(=O)[C@@H](N)Cc1c[nH]c2ccccc12)C(=O)O (H-Trp-Val-OH)	0
CC(C)[C@H](NC(=O)[C@@H]1Cc2ccccc2CN1C(=O)[C@@H](N)Cc1c[nH]c2ccccc12)C(=O)O (H-Trp-[Tic]-Val-OH)	0
NCCCC[C@H](NC(=O)[C@@H]1Cc2ccccc2CN1C(=O)[C@@H](N)Cc1c[nH]c2ccccc12)C(=O)O (H-Trp-[Tic]-Lys-OH)	0
N[C@@H](Cc1c[nH]c2ccccc12)C(=O)N1Cc2ccccc2C[C@H]1C(=O)N[C@@H](CCC(=O)O)C(=O)O (H-Trp-[Tic]-Glu-OH)	1
N[C@@H](Cc1c[nH]c2ccccc12)C(=O)N1Cc2ccccc2C[C@H]1C(=O)NCC(=O)O (H-Trp-[Tic]-Gly-OH)	0
N[C@@H](Cc1c[nH]c2ccccc12)C(=O)N1Cc2ccccc2C[C@H]1C(=O)N1CCC[C@H]1C(=O)O (H-Trp-[Tic]-Pro-OH)	0
N[C@@H](Cc1c[nH]c2ccccc12)C(=O)N1Cc2ccccc2C[C@H]1C(=O)N[C@@H](CO)C(=O)O (H-Trp-[Tic]-Ser-OH)	1
N[C@@H](Cc1c[nH]c2ccccc12)C(=O)N1Cc2ccccc2C[C@H]1C(=O)N[C@@H](CS)C(=O)O (H-Trp-[Tic]-Cys-OH)	1
N[C@@H](Cc1c[nH]c2ccccc12)C(=O)N1Cc2ccccc2C[C@H]1C(=O)O (H-Trp-[Tic]-OH)	1
C[C@H](O)[C@H](NC(=O)[C@@H]1Cc2ccccc2CN1C(=O)[C@@H](N)Cc1c[nH]c2ccccc12)C(=O)O	0
N[C@@H](Cc1c[nH]c2ccccc12)C(=O)N[C@@H](Cc1ccccc1)C(=O)O (H-Trp-Phe-OH)	0
N[C@@H](Cc1c[nH]c2ccccc12)C(=O)N[C@@H](Cc1ccc(O)cc1)C(=O)O (H-Trp-Tyr-OH)	0
N[C@@H](Cc1c[nH]c2ccccc12)C(=O)N[C@@H](CCC(=O)O)C(=O)O (H-Trp-Glu-OH)	0
CSCC[C@H](NC(=O)[C@@H]1Cc2ccccc2CN1C(=O)[C@@H](N)Cc1c[nH]c2ccccc12)C(=O)O (H-Trp-[Tic]-Met-OH)	1
N[C@@H](Cc1c[nH]c2ccccc12)C(=O)N1Cc2ccccc2C[C@H]1C(=O)N[C@@H](Cc1c[nH]c2ccccc12)C(=O)O (H-Trp-[Tic]-Trp-OH)	0
NC(N)=NCCC[C@H](NC(=O)[C@@H]1Cc2ccccc2CN1C(=O)[C@@H](N)Cc1c[nH]c2ccccc12)C(=O)O (H-Trp-[Tic]-Arg-OH)	0
CC[C@@H](C)[C@H](NC(=O)[C@@H]1Cc2ccccc2CN1C(=O)[C@@H](N)Cc1c[nH]c2ccccc12)C(=O)O	0

###

This section lists IC50 readings for Dipeptidyl peptidase 4 (Homo sapiens).
Square brackets hold non-standard residues; d marks the D form. Peptide text beside a SMILES is read from it. Tic = O=C(O)[C@@H]1Cc2ccccc2CN1

COMPOUND	UNIT TAG	IC50
N[C@@H](Cc1c[nH]c2ccccc12)C(=O)N1Cc2ccccc2C[C@H]1C(=O)O (H-Trp-[Tic]-OH)	µM	5.7
N[C@@H](Cc1c[nH]c2ccccc12)C(=O)N1Cc2ccccc2C[C@H]1C(=O)N[C@@H](CCC(=O)O)C(=O)O (H-Trp-[Tic]-Glu-OH)	µM	7
N[C@@H](Cc1c[nH]c2ccccc12)C(=O)N1Cc2ccccc2C[C@H]1C(=O)N[C@@H](CO)C(=O)O (H-Trp-[Tic]-Ser-OH)	µM	7.9

The measurements presented in this section are drawn from ChEMBL document CHEMBL1131542.
